In this section we review reported drug sensitivity score values for a set of molecules.
- Tested on: SW480
- protocol: drug sensitivity score (DSS, integrated dose-response area); higher = more sensitive (stronger viability reduction); extreme values may be limits of the assay
- study conditions: shRNA: SND1 shRNA1 (SND1 silenced)
The reply must contain the numeric value and, after it, the unit.

Below, each entry is followed by its recorded drug sensitivity score result.
molecule	observed result
CCCCNc1ncc(C(=O)NCc2ccc(-n3ccnc3)cc2)c(NC2CCC(O)CC2)n1 (stereo unspecified) [UNC2881]	0 DSS
Cc1ccc(NC(=O)c2ccc(CN3CCN(C)CC3)cc2)cc1Nc1nccc(-c2cccnc2)n1 [Imatinib]	0.7 DSS
CCN(CC)CCCC(C)Nc1c2ccc(Cl)cc2nc2ccc(OC)cc12 (stereo unspecified) [Mepacrine]	21.5 DSS

From here, focus on the item given below.
Quick one: drug sensitivity score for C=CC(=O)Nc1cc2c(Nc3ccc(F)c(Cl)c3)ncnc2cc1OCCCN1CCOCC1 [Canertinib] ?
7 DSS
